Reference source: the supplement of paper PMC8253809

Reported growth inhibition values for the following compounds.
- Tested on: DIPGX7 (H3.3 K27M diffuse intrinsic pontine glioma line)
- assay.info: growth inhibition (% activity, log2 RLU normalised to DMSO / staurosporine); higher = more growth inhibition
- experimental.parameters: 33 µM

{"compound": "c1cc(CN2CCCNCCNCCCNCC2)ccc1CN1CCCNCCNCCCNCC1", "target": "DIPGX7", "growth inhibition": "1.65%"}
{"compound": "CNC(=O)c1ccccc1Sc1ccc2c(/C=C/c3ccccn3)n[nH]c2c1", "target": "DIPGX7", "growth inhibition": "11.4%"}
{"compound": "O=C(O)c1cccnc1", "target": "DIPGX7", "growth inhibition": "0.846%"}
{"compound": "CC(NC(=O)Cc1cc(F)cc(F)c1)C(=O)NC(C(=O)OC(C)(C)C)c1ccccc1 (stereo not drawn)", "target": "DIPGX7", "growth inhibition": "0.0172%"}
{"compound": "COc1cc(NC(C)CCCN)c2ncccc2c1 (stereo not drawn)", "target": "DIPGX7", "growth inhibition": "29.6%"}
{"compound": "CC(C)(C)CC(C)(C)c1ccc(O)c(Cc2ccc(Cl)cc2Cl)c1", "target": "DIPGX7", "growth inhibition": "1.89%"}
{"compound": "CC[C@H](C)C(=O)O[C@H]1CCC=C2C=C[C@H](C)[C@H](CC[C@@H]3C[C@@H](O)CC(=O)O3)[C@H]21", "target": "DIPGX7", "growth inhibition": "9.34%"}
{"compound": "CC[C@@H]1C(=O)OC[C@@H]1Cc1cncn1C", "target": "DIPGX7", "growth inhibition": "-1.24%"}

* * *

- Test system: DIPGX37 (H3.3 K27M diffuse intrinsic pontine glioma line)
- assay.info: growth inhibition (% activity, log2 RLU normalised to DMSO / staurosporine); higher = more growth inhibition
- experimental.parameters: 33 µM
Reported growth inhibition values for the following molecules.
observed.property: growth inhibition (%)

{"molecule": "N#Cc1c(N(CC(=O)O)CC(=O)O)sc(C(=O)O)c1CC(=O)O", "observed.property": "growth inhibition", "test.value": -1.11}
{"molecule": "OC1(c2ccc(Cl)c(C(F)(F)F)c2)CCN(CCCC(c2ccc(F)cc2)c2ccc(F)cc2)CC1", "observed.property": "growth inhibition", "test.value": -5.49}
{"molecule": "CN1CCN(CCCN2c3ccccc3Sc3ccc(C(F)(F)F)cc32)CC1", "observed.property": "growth inhibition", "test.value": 0.958}
{"molecule": "CCCCC(CC)CN=C(N)N=C(N)NCCCCCCNC(N)=NC(N)=NCC(CC)CCCC (centres undefined)", "observed.property": "growth inhibition", "test.value": 60.6}

* * *

- Tested on: HGGX6 (H3.3 G34R paediatric high-grade glioma line)
- assay.info: growth inhibition (% activity, log2 RLU normalised to DMSO / staurosporine); higher = more growth inhibition
- experimental.parameters: 33 µM
Reported growth inhibition values for the following molecules.

{"molecule": "CN(C)CCN(Cc1ccccc1)c1ccccn1", "growth inhibition": "0.326%"}
{"molecule": "CN1CCC(=C2c3ccccc3CCc3cccnc32)CC1", "growth inhibition": "-5.77%"}
{"molecule": "CC[C@@H]1C(=O)OC[C@@H]1Cc1cncn1C", "growth inhibition": "-0.083%"}
{"molecule": "CC(=O)OCC(=O)[C@@]12N=C(C)O[C@@H]1C[C@H]1[C@@H]3CCC4=CC(=O)C=C[C@]4(C)[C@H]3[C@@H](O)C[C@@]12C", "growth inhibition": "0.221%"}
{"molecule": "C[C@@]12C[C@@]3(O)O[C@@H](O1)[C@]1(COC(=O)c4ccccc4)[C@H]3C[C@@]12O[C@@H]1O[C@H](CO)[C@@H](O)[C@H](O)[C@H]1O", "growth inhibition": "1.84%"}
{"molecule": "Cc1cccn2c(=O)c(-c3nnn[nH]3)cnc12", "growth inhibition": "-0.465%"}
{"molecule": "CCCCc1ncc(/C=C(\\Cc2cccs2)C(=O)O)n1Cc1ccc(C(=O)O)cc1", "growth inhibition": "0.268%"}
{"molecule": "CCN1CCN(c2cc(-c3ccc(F)cc3)c3c(n2)CCCCCC3)CC1", "growth inhibition": "0.894%"}
{"molecule": "CN1C(CCl)Nc2cc(Cl)c(S(N)(=O)=O)cc2S1(=O)=O (stereo not drawn)", "growth inhibition": "3.08%"}
{"molecule": "CN(C)CCCN1c2ccccc2CCc2ccc(Cl)cc21", "growth inhibition": "0.658%"}
{"molecule": "CCCc1cc(=O)[nH]c(=S)[nH]1", "growth inhibition": "-0.265%"}
{"molecule": "COc1ccc(-c2ccc3cc(C(=O)O)ccc3c2)cc1C12CC3CC(CC(C3)C1)C2", "growth inhibition": "2.51%"}
{"molecule": "N=C(N)NC(=N)NCCc1ccccc1", "growth inhibition": "1.66%"}
{"molecule": "Cc1cc(N)c2ccccc2[n+]1CCCCCCCCCC[n+]1c(C)cc(N)c2ccccc21", "growth inhibition": "36.2%"}
{"molecule": "CCCCCCCCCCCCCCCC[N+](C)(C)CCN(Cc1ccc(OC)cc1)c1ncccn1", "growth inhibition": "62%"}
{"molecule": "O=C1NCC2(CCN(CCc3ccccc3)CC2)O1", "growth inhibition": "0.472%"}
{"molecule": "Nc1ccc(/N=N/c2ccccc2)c(N)n1", "growth inhibition": "-3.08%"}
{"molecule": "CCN(CC)CCNC(C(=O)OCCC(C)C)c1ccccc1 (stereo not drawn)", "growth inhibition": "0.247%"}
{"molecule": "CC(COc1ccccc1)N(CCCl)Cc1ccccc1 (stereo not drawn)", "growth inhibition": "-3.53%"}
{"molecule": "COc1c2ccoc2cc2oc(=O)ccc12", "growth inhibition": "2.12%"}
{"molecule": "CN1CCN2c3ncccc3Cc3ccccc3C2C1 (stereo not drawn)", "growth inhibition": "-2.31%"}
{"molecule": "CO[C@H]1O[C@@H]2O[C@@]3(C)CC[C@H]4[C@H](C)CC[C@@H]([C@H]1C)[C@@]24OO3", "growth inhibition": "5.37%"}
{"molecule": "C[C@@H]1O[C@@H]1P(=O)(O)O", "growth inhibition": "1.12%"}
{"molecule": "CCCN(CCC)CCc1cccc2c1CC(=O)N2", "growth inhibition": "-2.51%"}
{"molecule": "CC1CNc2c(cccc2S(=O)(=O)N[C@@H](CCCNC(=N)N)C(=O)N2CC[C@@H](C)C[C@@H]2C(=O)O)C1 (stereo partly drawn)", "growth inhibition": "-1.28%"}
{"molecule": "Cc1nc(Nc2ncc(C(=O)Nc3c(C)cccc3Cl)s2)cc(N2CCN(CCO)CC2)n1", "growth inhibition": "10.8%"}
{"molecule": "O=S(=O)(O)CCS", "growth inhibition": "-1.07%"}
{"molecule": "Nc1nc2c(ncn2COCCO)c(=O)[nH]1", "growth inhibition": "-2.13%"}
